# Tested on: Raji;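 further: cell viability assay measuring inhibition of Raji cell growth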
# METHOD_NOTES: cells
# Type: functional, cell-based, Homo sapiens
# ASSAY_SETUP: Homo sapiens, Raji
# Description: SANGER: Inhibition of human Raji cell growth in a cell viability assay.
pIC50: −log10 of the molar value.
Overview of recorded pIC50 for various compounds

| COMPOUND | pIC50 |
| --- | --- |
| C=C(c1ccc(C(=O)O)cc1)c1cc2c(cc1C)C(C)(C)CCC2(C)C | < 5.10 |
| CCN(CC)CCNC(=O)c1c(C)[nH]c(/C=C2\C(=O)Nc3ccc(F)cc32)c1C | < 5.10 |
| COc1cc2ncn(-c3cc(OCc4ccccc4C(F)(F)F)c(C(N)=O)s3)c2cc1OC [GW843682X] | < 6.59 |
| COc1cc2ncn(-c3cc(OCc4ccccc4S(C)(=O)=O)c(C#N)s3)c2cc1OC [GSK-319347A] | < 5.30 |
| OCCCNc1cc(-c2ccnc(Nc3cccc(Cl)c3)n2)ccn1 | 7.38 |

###

# Tested on: KM12;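 further: KM12 cell growth inhibition, read out with a cell viability assay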
# METHOD_NOTES: cells
# Format: functional, cell-based, Homo sapiens
# ASSAY_SETUP: Homo sapiens, KM12
# Description: SANGER: Inhibition of human KM12 cell growth in a cell viability assay.
Where a name gives a salt, the structure may show the parent alone.

| COMPOUND | IC50 |
| --- | --- |
| Cc1ccc(-c2c(C(=O)CCl)n(CCCO)c3ncnc(N)c23)cc1 | > 4 µM |
| CO[C@H]1C[C@@H]2CC[C@@H](C)[C@@](O)(O2)C(=O)C(=O)N2CCCC[C@H]2C(=O)O[C@H]([C@H](C)C[C@@H]2CC[C@@H](OC(=O)C(C)(CO)CO)[C@H](OC)C2)CC(=O)[C@H](C)/C=C(\C)[C@@H](O)[C@@H](OC)C(=O)[C@H](C)C[C@H](C)/C=C/C=C/C=C/1C | > 0.2 µM |
| COC1=CC(c2cc3ccccc3[nH]2)=N/C1=C\c1[nH]c(C)cc1C [OBATOCLAX MESYLATE] | 0.318 µM |
| COc1cc2ncn(-c3cc(OCc4ccccc4S(C)(=O)=O)c(C#N)s3)c2cc1OC [GSK-319347A] | > 5 µM |
| CCC/C=C/C=C/C(=O)O[C@H]1/C(=C/C(=O)OC)C[C@H]2C[C@H]([C@@H](C)O)OC(=O)C[C@H](O)C[C@@H]3C[C@H](OC(C)=O)C(C)(C)[C@](O)(C[C@@H]4C/C(=C/C(=O)OC)C[C@H](/C=C/C(C)(C)[C@]1(O)O2)O4)O3 | > 0.008 µM |
| CN(C)C(=N)NC(=N)N | > 20000 µM |

###

# System: LP-1;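 further: growth inhibition of human LP-1 cells, with the read-out taken from a cell viability assay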
# METHOD_NOTES: cells
# Assay type: functional, cell-based, Homo sapiens
# ASSAY_SETUP: Homo sapiens, LP-1
# Description: SANGER: Inhibition of human LP-1 cell growth in a cell viability assay.
pIC50: −log10 of the molar value.
Overview of recorded pIC50 for various compounds

| COMPOUND | pIC50 |
| --- | --- |
| Cc1ccc(-c2c(C(=O)CCl)n(CCCO)c3ncnc(N)c23)cc1 | < 5.40 |
| Cc1cc([N+](=O)[O-])ccc1NS(=O)(=O)c1cc(Cl)ccc1Cl | 4.98 |
| COc1cc(N2CCN(C)CC2)ccc1Nc1ncc2c(n1)N(C)c1ccccc1C(=O)N2C | < 5.10 |
| C=C(c1ccc(C(=O)O)cc1)c1cc2c(cc1C)C(C)(C)CCC2(C)C [BEXAROTENE] | < 5.10 |
| OCCCNc1cc(-c2ccnc(Nc3cccc(Cl)c3)n2)ccn1 | 7.28 |
| C#Cc1cccc(Nc2ncnc3cc(OCCOC)c(OCCOC)cc23)c1 [ERLOTINIB] | < 5.70 |
